System: Es-2
Assay: Primary qHTS to identify gynecologic anti-cancer compounds using libraries of approved drugs and bioactive compounds (AID 1345084); further: nearly all actives have a fitted effect of over 55% in size
Settings: Gynecologic cancer cell panel viability, ATPlite luminescence, 48 h; series mostly up to 57.5 µM
Results filed as inconclusive are left out. Activity calls are given as the source filed them. The call rests on the fitted dose curve; in most records, active means well fitted cell-killing curve with a large enough effect; inconclusive means small, poorly fitted or top-dose-only effect, or effect the other way; inactive means flat fitted curve, though single readings scatter.
Tick one outcome: True for active, False for inactive

Query: Kindly provide the recorded test outcome for the following compound: CC[C@H]1C[C@H]2[C@@H]3CCC4=CC(=O)CC[C@@H]4[C@H]3CC[C@]2(C)[C@H]1O
Response: False

Query: What classification did Cc1c(Cl)c(=O)oc2cc(OP(=O)(OCCCl)OCCCl)ccc12 end up with in this test?
Response: False

Query: In this assay, the call recorded for COc1ccc(OC)c(CC(C)N)c1 (centres undefined) was what?
Response: False

Query: Tell me the assay call for Clc1ccc(C(OCCN2CCCCC2)c2ccccc2)cc1 (centres undefined) please.
Response: False

Query: Tell me the assay call for CN1CCc2cc(Cl)c(O)cc2[C@H]2c3ccccc3CC[C@@H]21 please.
Response: False

Query: Test call, this compound: c1ccc2c(c1)Sc1ccccc1N2CC1CN2CCC1CC2 (centres undefined)
Response: True

Query: // return assay outcome for CCOC(=O)NC(C)(C)Cc1ccc(Cl)cc1
Response: False

Query: Recorded test call requested for CCN(CC)Cc1nccn1-c1ccc([N+](=O)[O-])cc1C(=O)c1ccccc1Cl
Response: False

Query: # fetch the recorded call for CC(C)[N+](C)(CCC(C(N)=O)(c1ccccc1)c1ccccc1)C(C)C here
Response: False

Query: Each compound tested received a call. Report the one for CC(C)NCC(O)c1ccc(N)c(C#N)c1 (centres undefined) .
Response: False

Query: Entry COc1cc(C[C@@H](C)N)c(OC)cc1Br : call = ?
Response: False

Query: Please indicate how the test categorized CCN(Cc1ccc(Cl)nc1)/C(=C/[N+](=O)[O-])NC .
Response: False

Query: Hi, do you know how CCO[C@H]1O[C@@H]2OC3(C)CC[C@H]4[C@H](C)CC[C@@H]([C@H]1C)[C@@]24OO3 came out in this test?
Response: False

Query: For O=C(CCl)c1ccc(Cl)cc1Cl , which call appears in the assay record?
Response: False

Query: What classification did CC(=O)OC1(c2ccccc2)CCN(CCc2ccccc2)CC1 end up with in this test?
Response: False

Query: How did this test come out for CCCCC1C(=O)NC(=O)N(C2CCCCC2)C1=O (centres undefined) ?
Response: False

Query: Assay outcome for Sc1ccccc1Cl : what was it?
Response: False

Query: What classification did CC(Cc1ccccc1)NCCCCl (centres undefined) end up with in this test?
Response: False

Query: Test call for this compound, please: CCCN(CCC)CCc1c[nH]c2ccccc12
Response: False

Query: What was the test verdict on N#Cc1nn(-c2c(Cl)cc(C(F)(F)F)cc2Cl)c(N)c1S(=O)C(F)(F)F (centres undefined) ?
Response: False

Query: For C#C[C@]1(O)C=C[C@H]2[C@@H]3CCC4=CC(=O)CC[C@@H]4[C@H]3CC[C@@]21CC , what call appears in the results of this test?
Response: False

Query: // param item: O=C(O)CCCCCCNC1c2ccccc2CCc2ccccc21 ; yields the recorded call
Response: False

Query: Status in this test for C[C@H]1C(=O)O[C@@H]2CCN3CC=C(COC(=O)[C@](C)(O)[C@]1(C)O)[C@H]23 ?
Response: False

Query: What did the test return for CCC1(CC)C(=O)NC(=O)NC1=O ?
Response: False

---

Settings: Ebola virus entry assay, reporter ratio channel; Channel type: primary
Active and inactive are the calls of the source. How the calls were made is not given here.
assay readout: AC50

A selection of reference data follows.
compound	AC50
COc1ccc2c(c1)C(=O)N(CCc1ccc(S(=O)(=O)NC(=O)NC3CCCCC3)cc1)C(=O)C2(C)C	inactive
C[C@H]1C[C@H]2[C@@H]3CCC4=CC(=O)C=C[C@]4(C)[C@@]3(Cl)[C@@H](O)C[C@]2(C)[C@@]1(O)C(=O)CO	20 µM (active)
CCn1cc(C(=O)O)c(=O)c2cc(F)c(N3CCNCC3)nc21	inactive
O=C(CCN1CCN2CCCC2C1)N1c2ccccc2Sc2ccc(Cl)cc21 (stereo not given)	10 µM (active)
CC(C)OC(=O)c1cc2c(OCC(O)CNC(C)(C)C)cccc2[nH]1 (stereo not given)	31.6 µM (active)

Entry CC[N+](CC)(CC)CCOc1ccc(/C=C/c2ccccc2)cc1 ; AC50 = 39.8 µM (active)

According to the records, this compound CC(C)Cc1ccc(C(C)C(=O)OCc2ccccn2)cc1 (stereo not given) displays AC50 of inactive

Summary for this compound, CCC1NC(=O)c2cc(S(N)(=O)=O)c(Cl)cc2N1 (stereo not given) : AC50 is inactive

AC50 recorded for this compound, CCCN(CCC)CCc1c[nH]c2ccccc12 , is 31.6 µM (active)

Value of measured AC50 for the entry C[N+]1(C)CCC(=C(c2ccccc2)c2ccccc2)CC1 : inactive

---

Conditions: Ebola virus entry assay, reporter ratio channel; Channel type: primary
Active and inactive are the calls of the source. No rule for the calls is given here.
Choose the fitting class; nothing outside active, inactive is accepted.

Query: Recorded test outcome, item NCCc1cnc[nH]1
Response: inactive

Query: Outcome? NC(=O)NNc1ccccc1
Response: inactive

Query: Kindly provide the recorded test outcome for the following compound: C[C@@H]1CCC[C@H](C)N1CCCC(O)(c1ccccc1)c1ccccn1 (some centres not stated)
Response: active

Query: Which result was noted for this compound in the test: CCN(Cc1ccc(Cl)nc1)/C(=C/[N+](=O)[O-])NC
Response: inactive

Query: recorded result category for CS(=O)(=O)c1ccc(-c2cn3ccccc3n2)cc1 in this test
Response: inactive

Query: I would be grateful if you could indicate the recorded call for CCOC(=O)NC(C)(C)Cc1ccc(Cl)cc1 .
Response: inactive

Query: Given CN1CCC(OC(c2ccccc2)c2ccccc2)CC1 , state the outcome it received in this test.
Response: active

Query: Answer briefly: the call reported for O=C(CCCN1CCN(c2ccccn2)CC1)c1ccc(F)cc1 in this assay.
Response: inactive

Query: Kindly provide the recorded test outcome for the following compound: Cc1cccc(Cc2cnc[nH]2)c1C
Response: inactive

Query: Please state the recorded outcome for this compound: CC(C)=CCOc1ccc(/C=C/C(=O)c2ccc(OCC=C(C)C)cc2OCC(=O)O)cc1
Response: inactive

Query: # outcome recorded in this test, key = Cc1c(Cl)c(=O)oc2cc(OP(=O)(OCCCl)OCCCl)ccc12
Response: inactive

Query: In this assay, the call recorded for O=C(NCC1CN(c2ccc(N3CCOCC3=O)cc2)C(=O)O1)c1ccc(Cl)s1 (configuration not stated) was what?
Response: inactive

---

System: MKL-1
Test: qHTS assay to identify novel small-molecules to repurpose for Merkel cell carcinoma treatment (AID 1296009); further: nearly all actives have a fitted effect of over 60% in size
Conditions: MCC and control cell lines, CellTiter-Glo viability, 72 h; series mostly up to 46 µM
Records with an inconclusive call do not appear. The source made the active and inactive calls. Calls follow the shape of the dose curve; as a rule, active = well fitted inhibition curve with a large enough effect; inconclusive = small, poorly fitted or top-dose-only effect; inactive = flat fitted curve, though single readings scatter.
Valid outcomes are listed here; reply with one: 1 (yes) = active, 0 (no) = inactive

Query: Short answer needed: outcome of this test for CCC(=O)O[C@H]1CC[C@H]2[C@@H]3CCC4=CC(=O)CC[C@]4(C)[C@H]3CC[C@]12C ?
Response: 0 (no)

Query: Recorded test call requested for CN1C2CCC(C)(C)C1CC(OC(=O)C(O)(c1cccs1)c1cccs1)C2 (stereo not drawn)
Response: 0 (no)

Query: Hi, do you know how CC1Sc2c(C(=O)O)c(=O)c3cc(F)c(N4CCNCC4)cc3n21 (stereo not drawn) came out in this test?
Response: 0 (no)

Query: Lab log entry: Nc1ccc(Cl)cc1C(=O)c1ccccc1F — outcome as called in the assay?
Response: 0 (no)

Query: Could you check what this test reported for CCN(CC)CCOC(=O)C(C)(c1ccccc1)c1ccccc1 ?
Response: 0 (no)

Query: I would be grateful if you could indicate the recorded call for COc1cc(CC(C)N)cc2c1OCO2 (stereo not drawn) .
Response: 0 (no)

Query: Called result for ClC1=C(Cl)C2(Cl)C(CBr)CC1(Cl)C2(Cl)Cl (stereo not drawn)
Response: 0 (no)

Query: GET /call?item= CN1C(=O)CN=C(c2ccccc2)c2cc([N+](=O)[O-])ccc21 returns the recorded outcome of this test.
Response: 0 (no)

Query: What is the recorded call for this compound in the test? CCc1cc(OC)c(C[C@H](C)N)cc1OC
Response: 0 (no)

Query: Recorded call for CC[C@H]1C[C@H]2[C@@H]3CCC4=CC(=O)CC[C@@H]4[C@H]3CC[C@]2(C)[C@H]1O ?
Response: 0 (no)

Query: Tell me the assay call for O=c1n(Cl)c(=O)n(Cl)c(=O)n1Cl please.
Response: 0 (no)

Query: Hello, I am checking results. What call was entered for C[C@@H]1O[C@@H](O[C@@H]2C=C3CC[C@@H]4[C@H](CC[C@]5(C)[C@@H](c6ccc(=O)oc6)CC[C@]45O)[C@@]3(C)CC2)[C@H](O)[C@H](O)[C@H]1O ?
Response: 1 (yes)

Query: Per the assay record, what outcome was assigned to C[C@]12CC[C@H]3[C@@H](CCC4=CC(=O)CC[C@@]43C)[C@@H]1CC[C@@H]2C(=O)O ?
Response: 0 (no)

Query: Name the outcome recorded for CCOC(=O)NC(C)(C)Cc1ccc(Cl)cc1 in the assay.
Response: 0 (no)

Query: Short answer needed: outcome of this test for CN1C(=O)[C@@H](NC(=O)c2cc3ccccc3[nH]2)N=C(c2ccccc2)c2ccccc21 ?
Response: 0 (no)

Query: Assay outcome for CC(CC(C(N)=O)(c1ccccc1)c1ccccc1)N(C)C (stereo not drawn) : what was it?
Response: 0 (no)

Query: Outcome? C[C@H]1C(=O)O[C@@H]2CCN3CC=C(COC(=O)[C@](C)(O)[C@]1(C)O)[C@H]23
Response: 0 (no)

Query: Fill in: this test's call for CN1CCC(N(Cc2ccccc2)c2ccccc2)CC1 is ___
Response: 0 (no)

Query: How did this test come out for Nc1ccc(N)cc1 ?
Response: 0 (no)

Query: Per the records of this test, what outcome belongs to CNC(C)Cc1ccccc1OC (stereo not drawn) ?
Response: 0 (no)

Query: Field: outcome | Entry: CN(C)CCc1c[nH]c2ccccc12
Response: 0 (no)

Query: Hey, what did the test say about O=C(CCCCl)c1ccc(F)cc1 ?
Response: 0 (no)

Query: Just curious, what result did Oc1ccc2[nH]cc(CCCCN3CC=C(c4ccccc4)CC3)c2c1 get here?
Response: 1 (yes)
